# maps each entry to its IC50
- System Name: EHMT1 (Homo sapiens, UniProt Q9H9B1)
- Sequence (Q9H9B1 whole entry, species assumed): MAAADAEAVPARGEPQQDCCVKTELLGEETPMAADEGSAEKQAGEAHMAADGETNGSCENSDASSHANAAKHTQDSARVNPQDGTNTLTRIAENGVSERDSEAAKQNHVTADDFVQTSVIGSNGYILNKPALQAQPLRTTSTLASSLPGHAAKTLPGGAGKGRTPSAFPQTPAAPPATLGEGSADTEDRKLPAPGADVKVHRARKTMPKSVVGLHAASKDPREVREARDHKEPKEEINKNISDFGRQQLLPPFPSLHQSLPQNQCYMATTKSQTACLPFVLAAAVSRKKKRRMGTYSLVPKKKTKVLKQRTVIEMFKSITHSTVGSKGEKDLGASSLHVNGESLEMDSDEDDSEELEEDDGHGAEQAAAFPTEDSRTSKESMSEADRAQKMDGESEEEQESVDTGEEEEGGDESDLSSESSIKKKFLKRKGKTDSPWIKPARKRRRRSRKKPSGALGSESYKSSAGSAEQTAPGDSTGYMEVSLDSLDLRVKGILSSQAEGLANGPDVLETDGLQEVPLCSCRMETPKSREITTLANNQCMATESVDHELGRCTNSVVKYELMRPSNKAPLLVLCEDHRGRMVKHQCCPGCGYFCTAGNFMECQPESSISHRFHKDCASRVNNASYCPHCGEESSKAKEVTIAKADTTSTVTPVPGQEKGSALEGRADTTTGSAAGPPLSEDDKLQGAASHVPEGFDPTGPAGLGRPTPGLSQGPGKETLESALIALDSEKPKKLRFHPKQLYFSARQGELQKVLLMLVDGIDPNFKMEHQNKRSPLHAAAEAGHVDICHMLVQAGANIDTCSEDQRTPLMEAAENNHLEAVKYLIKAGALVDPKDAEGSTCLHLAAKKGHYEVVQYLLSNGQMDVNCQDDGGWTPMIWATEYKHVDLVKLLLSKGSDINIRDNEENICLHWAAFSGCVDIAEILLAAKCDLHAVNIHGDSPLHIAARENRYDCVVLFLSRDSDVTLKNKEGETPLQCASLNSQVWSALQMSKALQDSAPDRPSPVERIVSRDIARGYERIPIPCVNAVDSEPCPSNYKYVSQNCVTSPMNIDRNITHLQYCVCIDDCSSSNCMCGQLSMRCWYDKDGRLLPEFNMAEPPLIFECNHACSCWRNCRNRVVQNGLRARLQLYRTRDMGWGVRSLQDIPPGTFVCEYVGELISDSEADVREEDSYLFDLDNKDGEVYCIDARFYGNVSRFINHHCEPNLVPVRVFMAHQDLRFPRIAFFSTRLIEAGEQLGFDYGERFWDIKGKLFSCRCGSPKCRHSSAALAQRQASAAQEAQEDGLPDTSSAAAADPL
- Assay Summary: EHMT1 enzyme assay on peptide substrate (EHMT1 PEP)
- Format: biochemical
- Particulars: read-out: EHMT1 PEP (IC50 μM)

Past entries and their recorded results:
CNc1nc(C2CC(C)(C)NC(C)(C)C2)c2cc(OC)c(OCCCN3CCCC3)cc2n1 [Compound 534]	1 to 10 µM
CCN1CC(COc2cc(Nc3cc(NC)nc(C)c3F)ncc2OC)C1 [Compound 567]	1 to 10 µM
CNc1cc(C)nc(Nc2ccc(OC)c(OC3CCN(C)CC3)c2)n1 [Compound 455]	> 10 µM
CNc1cc(C)nc(Nc2ccc(OC)c(OCC3CCN(C4CCCC4)C3)c2)n1 (stereo not shown) [Compound 456]	1 to 10 µM
COc1cnc(Nc2cc(C)nc3[nH]ncc23)cc1OCCCN1CCCC1 [Compound 596]	1 to 10 µM
COc1cnc(Nc2cccc3nccn23)cc1OCCCN1CCCC1 [Compound 585]	1 to 10 µM

Exercise: Look up and state reported IC50 for CNc1nc(C2CCCCC2)c2cc(OC)c(OCCCN3CCCC3)cc2n1 [Compound 523]
Key: 1 to 10 µM

Exercise: Look up and state reported IC50 for CNc1cc(C)nc(Nc2ccc(OC)c(OCCC3CCN(C)C3)c2)n1 (stereo not shown) [Compound 503]
Key: 1 to 10 µM

Exercise: Look up and state reported IC50 for CNc1nc(C2CCOCC2)c2cc(OC)c(OCCCN3CCCC3)cc2n1 [Compound 521]
Key: 1 to 10 µM

Measured values drawn from patent US20210198277A1 for this set.
